test name: physchem
experimental conditions: aqueous, pH 7.4
Description: Aqueous solubility of the compound at pH 7.4
test readout: solubility
Give the value; after it, write the unit.

For COc1ccc2c(Oc3ccc(CP(=O)(OCOC(=O)C(C)(C)C)OCOC(=O)C(C)(C)C)cc3)ccnc2n1 the compound record lists solubility as 20.6 µM
